# System: Staphylococcus aureus
# Protocol Description: Antibacterial activity against methicillin sensitive Staphylococcus aureus FDA209P by CLSI protocol based assay
# Type: functional
MIC overview
The figure you give is taken to be in mg/L; do not add the unit.

                                   molecule            target_desc  outcome_measure  reported_value
0         CCCCc1c(CCCC(C)C)oc(=O)c(CCCC)c1O  Staphylococcus aureus              MIC              15
1          CCCCCCCc1oc(=O)c(CCCC)c(O)c1CCCC  Staphylococcus aureus              MIC              16
2  CCCCc1c([C@H](CCCC)C(=O)CCC(C)C)oc(=O)c(CCCC)c1O  Staphylococcus aureus              MIC              10
3  CCCCCC(=O)[C@@H](CCC(C)C)c1oc(=O)c(CCCC)c(O)c1CCCC  Staphylococcus aureus              MIC               5
4            CCCCCc1oc(=O)c(CCCC)c(O)c1CCCC  Staphylococcus aureus              MIC              15
5  CCCCCC(=O)[C@@H](CCCC)c1oc(=O)c(CC(C)C)c(O)c1CCCC  Staphylococcus aureus              MIC              10

// moving on: another record for MIC
Look at this molecule and give its reported MIC. CCCCCCc1c(O)c(CCCC)c([C@H](CCCC)C(=O)CCCCC)oc1=O
2.5
